- experimentalSystem: Aurora kinase A (Homo sapiens) (UniProt O14965);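 further: values are mean percent inhibition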
- Sequence (whole entry): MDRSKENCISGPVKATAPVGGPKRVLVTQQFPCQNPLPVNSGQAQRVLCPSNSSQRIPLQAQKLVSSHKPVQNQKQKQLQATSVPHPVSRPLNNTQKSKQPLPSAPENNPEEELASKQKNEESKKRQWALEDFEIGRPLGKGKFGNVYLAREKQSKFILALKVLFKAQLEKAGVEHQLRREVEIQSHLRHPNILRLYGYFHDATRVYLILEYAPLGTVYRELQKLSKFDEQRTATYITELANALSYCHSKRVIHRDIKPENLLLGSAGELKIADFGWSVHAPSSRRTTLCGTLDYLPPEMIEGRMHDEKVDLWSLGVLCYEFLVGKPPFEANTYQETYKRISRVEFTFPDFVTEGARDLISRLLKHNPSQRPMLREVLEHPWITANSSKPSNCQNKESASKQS
- runConditions: at 1 µM
Returns one of y or n; y when inhibition is >= 70%.

Completed entries (count: 4):
{"compound": "Cc1c2ccc(N(C)c3ccnc(Nc4cccc(S(N)(=O)=O)c4)n3)cc2nn1C", "group": "y"}
{"compound": "CCS(=O)(=O)c1ccc(OC)c(Nc2ncc(-c3cccc(C(C)=O)c3)o2)c1", "group": "n"}
{"compound": "Cc1ccc(-c2cc3c(NC(=O)C4CC4)ncnc3o2)cc1", "group": "n"}
{"compound": "CC1=C(C(=O)Nc2ccc3[nH]nc(C)c3c2)C(c2ccc(C(F)(F)F)cc2)CC(=O)N1 (stereo not given)", "group": "y"}

Continue with the compound presented below.
Confirm if inhibition reported for the compound CS(=O)(=O)CCNCc1ccc(-c2ccc3ncnc(Nc4ccc(OCc5cccc(C(F)(F)F)c5)cc4)c3c2)o1 is 70% or above.
n
